System: HCC 2998
Protocol Description: NCI tumour cell line growth inhibition, 48 h
Active and inactive are the calls of the source. Rule as the data show it: active = GI50 up to about 1.1 µM and inactive = higher.
Possible outcomes: active, inactive

NC(=O)c1ccc2c(c1)S(=O)(=O)c1ccccc1C2=O :: inactive
CCCCOc1ccc(NC(=N)Nc2ccc(Cl)cc2)cc1 :: active
N[C@H]1CCc2c1nc1c(c2-c2ccccc2)CC[C@@H]1N :: inactive
COC(=O)C1CCCCCCCCCCC12SCCCS2 (centres undefined) :: inactive
COC(=O)C(CBr)CBr :: inactive
COc1ccccc1NC(=S)N/N=C(/c1ccccc1)c1ccccn1 :: inactive
COC(=O)C(C)(NC(=O)C(CC(=O)OC(C)(C)C)NC(=O)OC(C)(C)C)c1ccccc1 (centres undefined) :: inactive
CN1CCc2cc(N)cc3c2C1Cc1ccc(O)c(O)c1-3 (centres undefined) :: inactive
O=[N+]([O-])/C(Cl)=C(\NCCO)C(Cl)=C(Cl)Cl :: inactive
COc1ccc2c(c1)CCc1c(-c3n[nH]c4c3CCc3cc(OC)ccc3-4)n[nH]c1-2 :: inactive
Cc1ccc(OC2CC(n3cnc4c(=O)[nH]c(Br)nc43)OC2Oc2ccc(C)cc2)cc1 (centres undefined) :: inactive
Cc1ccc(S(=O)(=O)NC(=O)NC2=NC(C)(C)N(c3ccc(Cl)c(Cl)c3)C(N)=N2)cc1 :: inactive
CCOC(=O)C1(C(=O)OCC)OC(=O)NC2=C1CCCC2 :: inactive
COC(=O)c1cccc2cccc(C(=O)Nc3ccc(C)cc3C)c12 :: inactive

---

Tested on: K562
Protocol Description: NCI tumour cell line growth inhibition, 48 h
Active and inactive are the calls of the source. No stated cut-off is given here; in the data, active = GI50 up to about 1.1 µM and inactive = higher.
Possible outcomes: active, inactive

O=c1c(F)cn2c(=O)n1CCCCCCCn1c(=O)c(F)cn(c1=O)CCCCCCC2 :: inactive
C=C1C(=O)OC2CC3(CO3)C3C(O)C(O)CC3(C)CC12 (stereo not given) :: inactive
CC(=O)c1[nH]c(NC(C)C)c(C(=S)Nc2ccccc2)c1N :: inactive
CC1(C)Oc2ccc(NC(=O)CCC(N)C(=O)O)cc2O1 (stereo not given) :: inactive
CC1CN=C(N(C(=O)Nc2ccc(F)c(Cl)c2)c2ccccc2)S1 (stereo not given) :: inactive
O=c1[nH]c(C23CC4CC(CC(C4)C2)C3)cc2c1c(=O)oc1ccccc12 :: inactive
C=CC1(NC(=O)c2ccccc2)CCC(C(C)(C)C)CC1 (stereo not given) :: inactive
O=c1ccn(C2OC(CN(O)CCC3C(CO)OC(n4ccc(=O)[nH]c4=O)C3O)C(O)C2O)c(=O)[nH]1 (stereo not given) :: inactive
O=c1c2cc3c(cc2[nH]c2ncccc12)OCO3 :: inactive
NC(=O)N1N=C2c3ccccc3OC[C@H]2[C@@H]1c1ccccc1 :: inactive
CCOC(=O)c1sc2nc(SC)nc(Nc3ccc(OC)c(OC)c3)c2c1N :: inactive
CC(=O)CNC(=O)OC(C)(C)C :: inactive
COC(=O)C1=C(C)N(NC(N)=O)C2(N)N(NC(N)=O)C(C)=C(C(=O)OC)C12C(=O)OC (stereo not given) :: inactive
CCCCCCOc1ccc(C(=O)NOC)cc1 :: inactive
Cc1ccc(S(=O)(=O)NC(=O)NCC(N)=O)cc1 :: inactive
CC(C)(O)[C@@H]1CCC(C)([C@H]2[C@@H](O)CC3(C)C4CC(OC5OC(CO)C(O)C(O)C5O)C5C(C)(C)[C@@H](OC6OCC(O)C(O)C6O)CC[C@@]56C[C@@]46CC[C@]23C)O1 (stereo not given in full) :: inactive
CSCSCC(N)CO.Cc1[nH]c(=O)[nH]c(=O)c1/C=C/C(=O)O :: inactive
CCCC(CCC(=O)O)(CCC(=O)O)[N+](=O)[O-] :: inactive
Cc1ccc(S(=O)(=O)NC(=O)NC2=NC(C)(C)N(c3ccc(Cl)c(Cl)c3)C(N)=N2)cc1 :: inactive
O=C(c1ccccc1)N1C2C3CC(OCc4ccccc4)(OCc4ccccc4)C(O3)C21 (stereo not given) :: inactive
COC(=O)N1CC2C3C4CC(C(c5ccccc5)=C4c4ccccc4)C3C21 (stereo not given) :: inactive
Cc1ccc(OC2CC(n3cnc4c(=O)[nH]c(Br)nc43)OC2Oc2ccc(C)cc2)cc1 (stereo not given) :: inactive
COc1ccc(C(NCCNC(c2ccc(OC)c(OC)c2)c2cc3c(cc2O)OCO3)c2cc3c(cc2O)OCO3)cc1OC (stereo not given) :: inactive
Cc1c(CCCl)c(N=[N+]=[N-])n2c(nc3ccccc32)c1C#N :: active
C[C@H](N)C(=O)Nc1ccc(-c2nc3ccccc3s2)cc1Cl :: inactive
CS(=N)(=O)CCC(N)P(=O)(O)O (stereo not given) :: inactive
Cc1[nH]c(C)c(CN(C)C)c1CN(C)C :: inactive
O=C(O)/C(Cc1c[nH]nn1)=N\O :: inactive
CCOc1cc2c(cc1OC(C)=O)C(=O)CC[C@H]1C3CC[C@H](OC(C)=O)[C@@]3(C)CC[C@H]21 (stereo not given in full) :: inactive
O=c1cccccc1O.O=c1cccccc1O.O=c1cccccc1O.[SiH4] :: inactive
CC(/C=N/N(C)C1=NCCCCN1)=N/N(C)C1=NCCCCN1 :: inactive
CCC(=O)c1cc(C(=O)C(=S)SC)cc(C(=O)C(=S)SC)c1 :: inactive
Cc1cc(C)nc(NS(=O)(=O)c2ccc(NC(=O)c3ccc4nc5ccccc5c(Nc5ccc(S(=O)(=O)Nc6nc(C)cc(C)n6)cc5)c4c3)cc2)n1 :: inactive
CC(C)C(=O)[C@@]1(C)SC[C@H]2CCN=C21 :: inactive
CC(=O)OC1=CC2(OC(C)=O)CC(C)(C)C1C1C(=O)C=CC(=O)C12 (stereo not given) :: inactive
c1ccc([I+]c2ccccc2)cc1 :: inactive
CCN(CC)c1ccc(/N=N/c2ccc(-c3nc4cccnc4s3)cc2)cc1 :: inactive
CCOC(=O)C1(C(=O)OCC)OC(=O)NC2=C1CCCC2 :: inactive
Cn1cc(-c2ccc(CCOC3CCCCO3)cc2)c2c(C#N)cccc21 (stereo not given) :: inactive
CC1=CC(O)(c2ccc(-c3ccccc3Cl)cc2)OC1=O (stereo not given) :: inactive
